protocol_description: Stability in rat liver microsomes assessed as compound remaining at 1 uM after 30 mins
Assay type: ADME, microsome
assay_conditions: read-out: Stability
This section presents molecules with their documented remaining at 0.5 h, 1 µM values.
Give the quantity in %, number only.

CC(C)c1cc(-c2nn(C(C)C)c3ncnc(N)c23)no1 : 4.1

Consider the additional molecule presented here.
Inquiry: Need remaining at 0.5 h, 1 µM, item `CC(C)n1nc(-c2cc(C3CC3)on2)c(C(N)=O)c1N`
Reply text: 69

====

assay_target: Proto-oncogene tyrosine-protein kinase receptor Ret (Homo sapiens, UniProt P07949)
Sequence (P07949 whole entry): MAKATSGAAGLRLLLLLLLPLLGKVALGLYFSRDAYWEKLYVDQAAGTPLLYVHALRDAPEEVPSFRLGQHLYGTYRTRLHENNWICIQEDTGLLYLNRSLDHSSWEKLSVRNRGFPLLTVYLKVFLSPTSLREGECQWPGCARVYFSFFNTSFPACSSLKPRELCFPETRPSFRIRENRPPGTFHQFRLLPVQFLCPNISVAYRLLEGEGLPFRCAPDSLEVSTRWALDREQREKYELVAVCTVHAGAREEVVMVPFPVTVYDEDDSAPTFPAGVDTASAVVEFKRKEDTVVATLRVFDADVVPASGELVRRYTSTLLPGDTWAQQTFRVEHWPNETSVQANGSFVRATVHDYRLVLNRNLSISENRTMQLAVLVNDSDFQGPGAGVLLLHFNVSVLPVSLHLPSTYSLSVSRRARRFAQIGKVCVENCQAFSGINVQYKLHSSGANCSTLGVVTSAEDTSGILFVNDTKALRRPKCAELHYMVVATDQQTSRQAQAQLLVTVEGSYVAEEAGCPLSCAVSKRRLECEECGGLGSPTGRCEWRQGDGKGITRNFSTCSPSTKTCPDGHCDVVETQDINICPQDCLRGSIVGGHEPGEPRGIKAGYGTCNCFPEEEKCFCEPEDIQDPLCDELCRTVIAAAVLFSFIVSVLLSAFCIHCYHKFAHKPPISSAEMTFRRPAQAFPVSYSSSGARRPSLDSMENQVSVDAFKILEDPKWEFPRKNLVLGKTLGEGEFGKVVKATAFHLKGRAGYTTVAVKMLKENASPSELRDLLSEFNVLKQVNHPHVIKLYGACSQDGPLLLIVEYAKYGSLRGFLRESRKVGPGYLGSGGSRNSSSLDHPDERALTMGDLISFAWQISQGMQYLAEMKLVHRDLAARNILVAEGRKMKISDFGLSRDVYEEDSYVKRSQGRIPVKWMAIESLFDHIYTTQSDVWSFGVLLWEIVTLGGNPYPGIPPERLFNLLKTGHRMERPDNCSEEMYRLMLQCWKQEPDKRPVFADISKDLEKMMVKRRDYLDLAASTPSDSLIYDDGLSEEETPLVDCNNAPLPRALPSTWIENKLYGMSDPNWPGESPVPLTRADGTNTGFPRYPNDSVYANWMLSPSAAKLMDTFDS
IC50 strictly less than 400 nM = 1. Otherwise -1.

Answered cases to consult:
CC(C)n1nc(-c2cc(C3CCCCC3)on2)c(C(N)=O)c1N : -1
CC(C)n1nc(-c2cc(-c3ccc(F)cc3)on2)c(C(N)=O)c1N : -1
CC(C)n1nc(-c2cc(C3CC3)on2)c(C(N)=O)c1N : 1
CC(C)n1nc(-c2cc(-c3cccs3)on2)c(C(N)=O)c1N : 1
CC(C)n1nc(-c2cc(-c3cccnc3)on2)c(C(N)=O)c1N : -1
CC(C)n1nc(-c2cc(-c3ccccn3)on2)c(C(N)=O)c1N : -1
CC(C)n1nc(-c2cc(Cc3ccccc3)on2)c(C(N)=O)c1N : -1

Continue with the next compound.
Inquiry: Is 400 nM strictly greater than the compound's reported IC50? compound: `CCc1cc(-c2nn(C(C)C)c(N)c2C(N)=O)no1`
Reply text: -1
